biological target: Fibroblast growth factor receptor 3 (Homo sapiens); conditions: Compound concentration 20.0 uM, Protein concentration 2.0 uM, Result type QC Liability
Description: Thermal Shift Assay. Domain: start/stop: P449-E759
measured_metric: ΔTm (°C)
Lab book: enter the figure in °C, no units written.

Prompt line: So what does the record say about ΔTm for CN1C(=O)c2c(nn(Cc3ccc(-c4cccc(F)n4)cc3)c2Nc2ccccc2)N2C1=N[C@@H]1CCC[C@@H]12 ?
Response line: -0.44

Prompt line: Tell me the measured ΔTm of CNC(=O)c1cc(C(=O)N[C@H]2[C@@H]3COC[C@@H]32)cc2c1O[C@H](CF)[C@H]2c1ccccc1 , please.
Response line: 0.65

Prompt line: Fill in the blank: the reported ΔTm of NCCCc1c(C(=O)O)[nH]c2ccc(C(=O)Nc3ccccc3)cc12 is ____.
Response line: 0.79

Prompt line: Would you mind telling me what ΔTm value was observed for COc1cc(-c2cc3ncccc3c(O[C@@H](C)[C@H]3CNC(=O)C3)n2)cc(OC)c1OC ?
Response line: 0.6

Prompt line: Request the reported ΔTm associated with CCc1c(-c2ccc3[nH]ncc3c2)cnc(N)c1-c1ccc(O)cc1
Response line: 2.78

Prompt line: // returns reported ΔTm for input CCc1cc2c(cc1N1CCC(N3CCOCC3)CC1)C(C)(C)c1[nH]c3cc(C#N)ccc3c1C2=O
Response line: 0.56

Prompt line: Give its ΔTm value. Item: CCN1C(=O)c2cc(C)ccc2N(C)c2ncccc21
Response line: 0.59

Prompt line: Param item = Cc1nsc(Nc2cnc(C(F)(F)F)cn2)c1C(=O)Nc1ccc(O[C@H]2CCCN(CC(F)(F)F)C2)nc1 ; retrieve measured ΔTm.
Response line: 1.39

Prompt line: So what does the record say about ΔTm for Cn1cc(Nc2nccc(N3CC4CCC(C3)N4C(=O)[C@@H]3CC3(F)F)n2)cn1 ?
Response line: 2.58

Prompt line: Requested read-out: ΔTm. Entry: Cc1csc(-c2nnc(Nc3ccc(Oc4ncccc4-c4ccnc(N)n4)cc3)c3ccccc23)c1
Response line: -1.73

Prompt line: Reported ΔTm, compound COc1ccc(Br)cc1S(=O)(=O)NC(=O)/C=C/c1cc(Cl)ccc1Cc1ccc2ccccc2c1 : ____
Response line: 0.7

Prompt line: Quick check: ΔTm of Cn1cc(-c2ccc(-c3cncc(Cl)c3N3CCC4(CCNC4=O)CC3)cc2)cn1 ?
Response line: 0.5

Prompt line: Which ΔTm is listed for Cc1cc(CN)cc(C)c1-c1ncn(C)c1-c1cncn1C ?
Response line: 0.44

Prompt line: Quick one: ΔTm for Cc1[nH]c2c(N3CCCCC3)c(-c3ccccc3)nn2c(=O)c1-c1ccc(O)cc1 ?
Response line: 0.67

Prompt line: Name the recorded ΔTm for CP(C)(=O)c1ccc(CNC(=O)C2CCN(S(=O)(=O)c3cc(Cl)cc(Cl)c3)CC2)cc1 .
Response line: 0.53

Prompt line: Quick one: ΔTm for Cc1nccn1-c1ccc(Sc2cccc(C3(C(N)=O)CCOCC3)c2)cc1 ?
Response line: 0.44

Prompt line: What measured ΔTm goes with C[C@H](CCC(=O)O)[C@H]1CC[C@H]2[C@@H]3CC[C@@H]4C[C@H](O)CC[C@]4(C)[C@H]3C[C@H](O)[C@]12C ?
Response line: 0.63

Prompt line: Reported ΔTm for CC(=O)N1CCC(c2ccc(C(=O)NC(=N)N)cc2C(F)(F)F)CC1 : what is it?
Response line: 1.29

Prompt line: What does the data say about its ΔTm? Entry: COc1cc(-c2cncc(-c3ccc(N4CCN(C(C)C)CC4)cc3)c2C)cc(F)c1C(N)=O
Response line: 0.64
